- System: nanobacteria
- EXPERIMENT NOTES: Antibiotic sensitivity test by Minimal Inhibition Concentration (MIC), 96-well plates, absorbance at 650 nm
- Format: cell-based
- ASSAY SETUP: short chain organic acids tested later in culture tests; read-out: MIC50 values
pIC50: −log10 of the molar value.
A collection of compounds and their measured pIC50

[[record]]
compound = "CC(O)C(=O)O (stereo not drawn)"
endpoint_label = "pIC50"
value_reported = "1.30 to 2.00"


Item "O=C1O[C@H]([C@@H](O)CO)C(O)=C1O" : provide pIC50 1.30 to 2.00

# return recorded pIC50 for input "CC(=O)O" 1.30 to 2.00
